# STUDY TARGET: Human complement C1s enzyme (Homo sapiens (Human))
# Sequence (P09871 438-688 limits assumed): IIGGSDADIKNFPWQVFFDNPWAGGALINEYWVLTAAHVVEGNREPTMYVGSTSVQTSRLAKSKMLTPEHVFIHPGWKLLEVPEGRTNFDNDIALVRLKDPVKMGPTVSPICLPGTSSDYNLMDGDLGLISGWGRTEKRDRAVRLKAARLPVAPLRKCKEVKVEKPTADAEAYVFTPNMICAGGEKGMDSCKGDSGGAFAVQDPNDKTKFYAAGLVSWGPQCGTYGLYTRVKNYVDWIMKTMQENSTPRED
# Sequence (P09871 16-437 partner limits assumed): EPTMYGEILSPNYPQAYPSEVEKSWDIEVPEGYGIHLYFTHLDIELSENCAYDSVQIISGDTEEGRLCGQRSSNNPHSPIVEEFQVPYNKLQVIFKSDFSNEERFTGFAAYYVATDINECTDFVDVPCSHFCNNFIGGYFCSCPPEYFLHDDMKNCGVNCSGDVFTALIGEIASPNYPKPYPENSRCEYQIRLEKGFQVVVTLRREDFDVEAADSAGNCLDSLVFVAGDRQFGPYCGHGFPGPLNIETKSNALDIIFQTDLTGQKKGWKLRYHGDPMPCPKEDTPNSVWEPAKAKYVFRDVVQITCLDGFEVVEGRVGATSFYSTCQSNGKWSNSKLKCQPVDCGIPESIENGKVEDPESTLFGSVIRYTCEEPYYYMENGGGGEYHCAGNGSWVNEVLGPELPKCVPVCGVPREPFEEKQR
# METHOD DESCRIPTION: Human C1s enzyme assay
# Format: biochemical
# TEST CONDITIONS: Human complement C1s enzyme 1.16 nM, substrate Z-L-Lys-SBzl 100 μM, assay of Example 3; read-out: IC50 (Stars)
pIC50: −log10 of the molar value.
TEST READOUT: pIC50

Past entries and their recorded results:
MOLECULE	OBSERVED RESULT
CC(=O)NCCNC[C@@]1(F)C[C@@H](C(=O)N[C@H](C)c2cc(C(=N)N)cs2)N(C(=O)CNC(=O)c2ccc3c(c2)-c2ccccc2C3(F)F)C1 [Compound 269]	> 7.00
CO[C@@H]1C[C@@H](C(=O)N[C@H](CO)c2cc(C(=N)N)cs2)N(C(=O)CNC(=O)c2ccc3c(c2)-c2ccccc2C3(C)C)C1 [Compound 395]	> 7.00
C[C@@H](NC(=O)[C@@H]1C[C@](F)(CF)CN1C(=O)CNC(=O)c1ccc2c(c1)oc1ccccc12)c1cc(C(=N)N)cs1 [Compound 372]	> 7.00
Cc1cc2c(cc1C(=O)NCC(=O)N1CC3(C[C@H]1C(=O)N[C@H](C)c1cc(C(=N)N)cs1)OCCO3)-c1ccccc1C2(F)F [Compound 237]	> 7.00
COC[C@@]1(F)C[C@@H](C(=O)N[C@H](C)c2cc(/C(N)=N\C(=O)OC)cs2)N(C(=O)CNC(=O)c2ccc3c(c2)-c2ccccc2C3(F)F)C1 [Compound 232]	> 7.00

Log: Human complement C1s enzyme (Homo sapiens (Human)), molecule C[C@@H](NC(=O)[C@@H]1C[C@@H](S(C)(=O)=O)CN1C(=O)CNC(=O)c1ccc2c(c1)-c1ccccc1C2OC(F)F)c1cc(C(=N)N)cs1 (stereo partly drawn) [Compound 392] , pIC50 = > 7.00
